# Test system: six V600E BRAF melanoma cell lines
# measurementProtocol: Screening of recombinant RTK ligands for ability to confer resistance to BRAFi (PLX4720) or MEKi (PD184352) (Table 4)
# Type: cell-based, human
# Parameters: scale not given here
# reportedConditions: Colo 829, PD184352 - 1 uM, ligand 1.6 ng/ml
List of ability of recombinant RTK ligand to confer resistance values.
parameter: ability of recombinant RTK ligand to confer resistance

molecule	resultValue
VEGF-C (protein, UniProt P49767 112-227, looked up) Vascular endothelial growth …: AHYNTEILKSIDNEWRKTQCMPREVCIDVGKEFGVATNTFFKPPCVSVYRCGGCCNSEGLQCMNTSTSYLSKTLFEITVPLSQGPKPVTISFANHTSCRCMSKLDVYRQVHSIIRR	0.97
BDNF (protein, UniProt P23560 19-247, looked up) Neurotrophic factor BDNF …: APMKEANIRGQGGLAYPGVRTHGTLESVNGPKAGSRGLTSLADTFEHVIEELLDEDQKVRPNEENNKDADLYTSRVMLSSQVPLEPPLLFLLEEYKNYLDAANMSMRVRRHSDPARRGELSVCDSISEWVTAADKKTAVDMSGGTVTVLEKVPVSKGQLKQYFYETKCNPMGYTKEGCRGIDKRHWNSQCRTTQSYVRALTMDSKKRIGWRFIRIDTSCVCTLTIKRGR	0.99
